test system: DNA (G4C2)4 (SEQ ID NO: 5) G4; experiment: 1D 1H-NMR titration of DNA (G4C2)4 G4; assay type: binding; details: G4:compound ratio 1:1 to 1:10
readout_name: binding to DNA (G4C2)4 G4 by NMR titration

> print(dat)
                            smiles.notation    assay.result
1  COc1c2c(c(O)c3c(=O)c4cccc(O[C@@H]5OC(C(=O)O)=C[C@H](O)[C@H]5O)c4oc13)-c1c(cc(CC(C)=O)c(C(=O)O)c1O)CC2  proved to bind
2  C[C@@]1(O)Cc2cc3c(c(O)c2C(=O)O1)-c1c(c(O)c(O)c2c(=O)c4cccc(O[C@@H]5OC(C(=O)O)=C[C@H](O)[C@H]5O)c4oc12)CC3  proved to bind
3  CC(=O)Cc1cc2c(c(O)c1C(=O)O)-c1c(c(O)c3oc4c(O[C@@H]5O[C@H](C(=O)O)[C@@H](O)[C@H](O)[C@H]5O)cccc4c(=O)c3c1O)CC2  proved to bind

---

target: RRM domain of hnRNP H (Homo sapiens); construct: HSQC spectra of RRM1/2 of hnRNP H; hexahistidine (cleaved yes); made in house; host or cells: Escherichia coli BL21(DE3), pET-28a(+); assay: 1H-15N HSQC NMR titration of hnRNP H RRM domain; assay type: binding; settings: ratios 1:5 and 1:10
Sequence (P31943 1-194 limits assumed): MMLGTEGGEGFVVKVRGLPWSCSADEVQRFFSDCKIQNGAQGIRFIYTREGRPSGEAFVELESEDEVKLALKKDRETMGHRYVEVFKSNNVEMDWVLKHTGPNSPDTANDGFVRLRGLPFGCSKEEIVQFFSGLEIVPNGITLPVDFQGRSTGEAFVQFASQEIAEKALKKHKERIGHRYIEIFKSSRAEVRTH
readout_name: binding to RRM domain of hnRNP H by NMR titration

> print(dat)
                            smiles.notation                             tested.on          assay.result
1  COc1c2c(c(O)c3c(=O)c4cccc(O[C@@H]5OC(C(=O)O)=C[C@H](O)[C@H]5O)c4oc13)-c1c(cc(CC(C)=O)c(C(=O)O)c1O)CC2  RRM domain of hnRNP H (Homo sapiens)  much weaker bindings
2  C[C@@]1(O)Cc2cc3c(c(O)c2C(=O)O1)-c1c(c(O)c(O)c2c(=O)c4cccc(O[C@@H]5OC(C(=O)O)=C[C@H](O)[C@H]5O)c4oc12)CC3  RRM domain of hnRNP H (Homo sapiens)  much weaker bindings

---

Recorded IC50 for the following compounds
target: Tau-R3 (Homo sapiens); construct: Tau-R3 protein was synthesized and purchased from ChinaPeptides Co., Ltd; purchased ChinaPeptides Co., Ltd; host or cells: chemical synthesis; test: Thioflavin T (ThT) fluorescent tau-R3 aggregation assay; format: biochemical; conditions: 20 μM Tau-R3, 10 μM heparin, read-out: IC50 of Tau-R3 aggregation inhibition (converted)
Sequence (P10636 623-653 limits assumed): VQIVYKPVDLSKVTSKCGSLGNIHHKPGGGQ
API: value field is a number in µM; no unit string.

Here is how some compounds turned out for IC50.
compound	readout_name	assay_result
COc1c2c(c(OC)c3c(=O)c4cccc(O[C@@H]5O[C@H](C(=O)O)[C@@H](O)[C@H](O)[C@H]5O)c4oc13)-c1c(cc(CC(C)=O)c(C(=O)O)c1O)CC2 [cE, chrexanthomycin E]	IC50	6.13
COc1c2c(c(O)c3c(=O)c4cccc(O[C@@H]5O[C@H](C(=O)O)[C@@H](O)[C@H](O)[C@H]5O)c4oc13)-c1c(cc(CC(C)=O)c(C(=O)O)c1O)CC2 [cD, chrexanthomycin D]	IC50	4.75
CC(=O)Cc1cc2c(c(O)c1C(=O)O)-c1c(c(O)c3oc4c(O[C@@H]5O[C@H](C(=O)O)[C@@H](O)[C@H](O)[C@H]5O)cccc4c(=O)c3c1O)CC2 [cC, chrexanthomycin C]	IC50	5.76

Let us examine a further case.
// query Output IC50 of COc1c2c(c(O)c3c(=O)c4cccc(O[C@@H]5OC(C(=O)O)=C[C@H](O)[C@H]5O)c4oc13)-c1c(cc(CC(C)=O)c(C(=O)O)c1O)CC2 [cB, chrexanthomycin B]
// result 2.05
